Target: flavodoxin (Fld); apo-Fld (Escherichia coli)
Sequence (P61949 2-176): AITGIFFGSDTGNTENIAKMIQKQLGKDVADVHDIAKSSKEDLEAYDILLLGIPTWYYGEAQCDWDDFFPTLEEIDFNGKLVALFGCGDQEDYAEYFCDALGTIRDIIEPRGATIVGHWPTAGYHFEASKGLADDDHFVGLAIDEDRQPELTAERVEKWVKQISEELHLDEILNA
Assay: isothermal titration calorimetry
Assay type: binding
assay-metric: Kd (nM)

smiles_entry=Cc1cc2nc3c(=O)[nH]c(=O)nc-3n(C[C@H](O)[C@H](O)[C@H](O)COP(=O)(O)O)c2cc1C value_observed=5.6
